# Test system: HOP-62 NSCLC
# PROCEDURE DETAILS: NCI-60 one-dose screen, 48 h
# MEASUREMENT PARAMETERS: 10 µM unless noted
Compounds without any hit were thinned out: in the full panel of roughly 83,000, 20% have a hit. The source made the active and inactive calls. How the source made its calls: active means growth percent below 10; inactive means the rest.
Outcomes: active, inactive

compound=Cc1cc(C)n(C(=O)c2nn(-c3ccc(Cl)cc3)cc2O)n1 class_label=inactive
compound=c1ccc(Nc2nnc(-c3cc(-c4cccnc4)n(-c4ccccc4)n3)s2)cc1 class_label=inactive
compound=COc1ccc(-c2c(-c3cc(OC)c(OC)c(OC)c3)noc2N)cc1 class_label=inactive
compound=Cc1c(C(N)=O)sc2c1c(=O)n(Cc1ccccc1)c1nnc(SCC(=O)Nc3ccc(Cl)cc3)n21 class_label=active
compound="O=C(/C=C/c1ccccc1)CC(c1ccccc1)N1CCOCC1 (centres undefined)" class_label=inactive
compound="O=C(C(=O)N1CCCCC1)c1ccc(OC2OC(CO)C(O)C(O)C2O)cc1 (centres undefined)" class_label=inactive
compound=CCCCn1c(Cc2ccc(Cl)cc2)nc2cc(OC)c(OC)cc2c1=O class_label=inactive
compound=CCN(CC)c1ccc(CN(CC(=O)c2ccc(Cl)c(Cl)c2)Cc2ccccc2)cc1 class_label=inactive
compound=Cc1c(NCc2nnc3n(Cc4ccccc4)c(=O)c4c5c(sc4n23)CCCC5)c(=O)n(-c2ccccc2)n1C class_label=inactive
compound="CCCCCCCC/C=C/CCCCCCCC1=NC(C)(C)CN1CC(C)O (centres undefined)" class_label=inactive
compound=Cc1nn(-c2ccccc2)c2nc3c(nc12)C(=O)CCC3 class_label=inactive
compound=O=C(Nc1nc2ccccc2s1)c1cc(-c2ccc(F)cc2)n2nc(-c3ccccc3)cc2n1 class_label=inactive
compound="C=C1c2c(C)nn(-c3ccc(C#CCOC4OC(CO)C(O)C(O)C4O)cc3)c2N(C)C23C[C@H]1C1(C)c4c(C)nn(-c5ccc(C#CCOC6OC(CO)C(O)C(O)C6O)cc5)c4N(C)C(C)(C[C@H]12)C3 (some centres undefined)" class_label=active
compound=CN(CC(=O)N(Cc1ccc(C2CCCCC2)cc1)c1ccc(C(=O)O)cc1)S(=O)(=O)c1c(F)c(F)c(F)c(F)c1F class_label=inactive
compound=N#Cc1ccc(NC(=O)Nc2ccc(Oc3ccc(NC(=O)Nc4ccc(C#N)cc4)cc3)cc2)cc1 class_label=inactive
compound=O=C1OCCCCCCCCCC#Cc2ccccc21 class_label=inactive
compound=O=C(Nc1ccc(C2=NCCCN2)cc1)Nc1ccc(C2=NCCCN2)cc1 class_label=inactive
compound="COc1cc(C2NC(c3ccc(Cl)cc3)C(C)C(=NC(=O)c3cnccn3)C2C)cc(OC)c1OC (centres undefined)" class_label=inactive
compound="CC(C)COCC(CN(Cc1ccccc1)c1ccccc1)N1CCCC1 (centres undefined)" class_label=inactive
